- Study system: doppel (Prnd) recombinant protein immobilized on the SPR sensor chip
- Sequence (Q9UKY0 26-152): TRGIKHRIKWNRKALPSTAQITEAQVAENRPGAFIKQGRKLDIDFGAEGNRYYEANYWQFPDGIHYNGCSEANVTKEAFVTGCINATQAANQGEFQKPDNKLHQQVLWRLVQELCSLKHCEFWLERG
- Assay explanation: SPR, BIAcore T100, recombinant protein immobilized on chip
Entries and their Kd
// units = nM; emit number, no label

# Binder, Unit of measurement, Endpoint value
data = [
    ("murine monoclonal antibody produced by hybridoma cell line clone 7G3 (antibody, V domains shown, also called hPrnd #7G3; KCLRF-BP-00500) VH: EIQLQQTGPELVKPGASVKISCKASGYSFTDYIMLWVKQSHGKSLEWIGNINPYYGSTSYNLKFKGKATLTVDKSSSTAYMQLNSLTSEDSAVYYCARRNYYGNYDAMDYWGQGTSVTVSS VL: QIVLTQSPAIMSASLGERVTMTCTASSSVSSSYLHWYQQKPGSSPKLWIYSTSNLASGVPARFSGSGSGTSYSLTISSMEAEDTATYYCHQYHRSPLTFGAGTKLELK", "nM", 10.6),
]

So for murine monoclonal antibody produced by hybridoma cell line clone 7A11 (antibody, V domains shown, also called hPrnd #7A11; KCLRF-BP-00498) VH: QVQLQQPGAELVRPGASVKLSCKASGYTFTSYWINWVKQRPGQGLEWIGNIYPSDSYTNYNQKFKDKATLTVDKSSSTAYMQLSSPTSEDSAVYYCTRSMITWGQGTTLTVSS VL: DVLMTQTPLSLPVSLGDQASISCRSSQSIVHSNGNTYLEWYLQKPGQSPKVLIYKVSNRFSGVPDRFSGSGSGTDFTLKINRVEAEDLGVYYCFQGSHVPLTFGAGTKLELK , the logged Kd turned out to be 0.253
